Settings: in ethanol, 308.15 K
OUTCOME_MEASURE: solubility (mole fraction)
Respond numerically, and do not add a unit to the figure.

Exercise: Using the record for CC(C)C(=O)OCC(=O)[C@@]12O[C@H](C3CCCCC3)O[C@@H]1C[C@H]1[C@@H]3CCC4=CC(=O)C=C[C@]4(C)[C@H]3[C@@H](O)C[C@@]12C , report its solubility (mole fraction).
Solution: 0.0176

###

Conditions: in ethanol, 290.65 K
OUTCOME_MEASURE: solubility (mole fraction)
// keep it numeric: no unit symbol after the value

Exercise: Any idea what solubility (mole fraction) was measured for CC(C)C(=O)OCC(=O)[C@@]12O[C@H](C3CCCCC3)O[C@@H]1C[C@H]1[C@@H]3CCC4=CC(=O)C=C[C@]4(C)[C@H]3[C@@H](O)C[C@@]12C ?
Solution: 0.00568
